Target or system Human immunodeficiency virus type 1 protease (Human immunodeficiency virus 1): recorded IC50 listed per item.

[
  {
    "MOLECULE": "CC(C)(C)OC(=O)N[C@@H](Cc1ccccc1)[C@@H](O)CC(=O)N[C@H]1c2ccccc2C[C@H]1O",
    "IC50 / nM": 562
  },
  {
    "MOLECULE": "CC(C)(C)OC(=O)N[C@@H](Cc1ccccc1)[C@@H](O)C[C@@H](Cc1ccccc1)C(=O)N[C@H]1c2ccccc2CC[C@H]1O",
    "IC50 / nM": 0.692
  },
  {
    "MOLECULE": "C[C@@H](NC(=O)[C@H](Cc1ccccc1)C[C@H](O)[C@H](Cc1ccccc1)NC(=O)OC(C)(C)C)c1ccccc1",
    "IC50 / nM": 145
  },
  {
    "MOLECULE": "CC(C)(C)NC(=O)[C@@H]1C[C@@H]2CCCC[C@@H]2CN1C[C@@H](O)C[C@@H](Cc1ccccc1)C(=O)N[C@H]1c2ccccc2CC1O (some centres not stated)",
    "IC50 / nM": 7.59
  },
  {
    "MOLECULE": "CC(C)(C)OC(=O)N[C@@H](Cc1ccccc1)[C@@H](O)C[C@@H](Cc1ccccc1)C(=O)N[C@H]1C=CC[C@H]1O",
    "IC50 / nM": 9.55
  },
  {
    "MOLECULE": "CC(C)(C)NC(=O)[C@@H]1C[C@@H]2CCCC[C@@H]2CN1C[C@@H](O)[C@H](Cc1ccccc1)NC(=O)OC(C)(C)C",
    "IC50 / nM": 3020
  },
  {
    "MOLECULE": "CC(C)(C)OC(=O)N[C@@H](Cc1ccccc1)[C@@H](O)C[C@@H](Cc1ccccc1)C(=O)N[C@H]1c2ccccc2OC[C@H]1O",
    "IC50 / nM": 0.178
  }
]

The measurements presented in this section are drawn from ChEMBL document CHEMBL1131491.
